Overview of reported growth, % of control at 10 µM across a group of compounds:
System: MDA-MB-468
Experiment: Growth inhibition of human MDA-MB-468 cells at 10^-5 M relative to control
Assay type: functional
Settings: values are per cent of control
API: value field is a number in %; no unit string.

>>> value_reported("OC[C@H]1[C@@H]2C[C@H](n3cnc4c(NC5CCCC5)ncnc43)[C@H]1C[C@@H]2Cl")
102
>>> value_reported("OC[C@H]1[C@@H]2C[C@H](n3cnc4c(NCCc5ccccc5)ncnc43)[C@H]1C[C@@H]2Cl")
89.4
>>> value_reported("OC[C@H]1[C@@H]2C[C@H](n3cnc4c(NC5CC5)ncnc43)[C@H]1C[C@@H]2Cl")
100

Sample CN1CCN(c2ncnc3c2ncn3[C@H]2C[C@H]3[C@H](CO)[C@@H]2C[C@@H]3Cl)CC1 ; growth, % of control at 10 µM observed: 101

Sample CN(C)c1ncnc2c1ncn2[C@H]1C[C@H]2[C@H](CO)[C@@H]1C[C@@H]2Cl ; growth, % of control at 10 µM observed: 102
